Values from the supplement of paper PMC10567573

B1: SETD8 (parent)
chain: KKAQGKTQQNRKLTDFYPVRRSSR

variants of: B1; assay: protein stability index of a GFP-peptide fusion (GPS, HEK-293T) (PSI 1-6); higher = more stable; settings: c terminus: a fixed tail appended;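 also: lentivirally expressed fusions sorted by FACS into six bins by GFP to DsRed ratio, PSI derived from sequencing read proportions per bin multiplied by bin number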
Output True for protein stability index not less than 3; output False otherwise.

In plain terms: is recorded protein stability index at least 3 for "KKAQGKTQQNRKLTDFFPVRRSSR" ?
False

Can "KKAQRKTQQNRKLTDFYPVRRSSR" be said to have protein stability index at or above 3?
False

Dear colleague, could you confirm whether "KKALGKTQQNRKLTDFYPVRRSSR" has protein stability index at or above 3?
True

Record "KKAQGKTRQNRKLTDFYPVRRSSR" ; criterion: protein stability index no lower than 3. Met?
False

Determine whether measured protein stability index meets or exceeds 3 for "KKAQGKTQQNRKLTVFYPVRRSSR"
False
